Listed below: Percent Control values for each entry.
# System: ADCK4
# EXPERIMENTAL_PARAMETERS: Compound Concentration (nM):1000;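 note: KINOMEscan scanMAX binding as percent activity remaining versus control; lower means stronger binding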
I'd appreciate it if you wrote the number followed by its unit.

MOLECULE	TARGET	Percent Control
CC1=C(C(=O)Nc2ccc3[nH]ncc3c2)C(c2ccc(Cl)c(Cl)c2)CC(=O)N1 (stereo not drawn) [GSK299115A]	ADCK4	92%

Please indicate Percent Control recorded for Nc1ncnc2occ(-c3ccc(NC(=O)Nc4cc(C(F)(F)F)ccc4F)cc3)c12 [GW770249X]
100%

Please indicate Percent Control recorded for CN(C)CCNC(=O)Nc1ccc(N(C)c2ccnc(Nc3ccc(CS(C)(=O)=O)cc3)n2)cc1.Cl [GW830900A]
79%

Please indicate Percent Control recorded for COc1ccc(COc2ccc(Cc3cnc(N)nc3N)cc2OC)cc1 [GW632580X]
100%

Please indicate Percent Control recorded for CCS(=O)(=O)c1ccc(OC)c(Nc2ncc(-c3cccc(OC)c3)o2)c1 [GW580509X]
100%

Please indicate Percent Control recorded for `CCn1c(-c2nonc2N)nc2c(C#CC(C)(C)O)nc(OCCNC)cc21.Cl`
100%

----------
# Test system: DYRK1B
# EXPERIMENTAL_PARAMETERS: Compound Concentration (nM):1000
MEASURED_ATTRIBUTE: Percent Control (%)
All answers are understood in %, so give the number only.

Known results for compounds:
COMPOUND	MEASURED_ATTRIBUTE	REPORTED_VALUE
O=C(Nc1n[nH]c2nc(-c3ccc(O)cc3)c(Br)cc12)C1CC1 [SB-725317]	Percent Control	7.4
Cl.O=C(Nc1ccc(Oc2ccc3[nH]c(NC(=O)c4ccco4)nc3c2)cc1)Nc1cc(C(F)(F)F)ccc1F [GW683134A]	Percent Control	93
COc1cc(C)c(N(C)C(=O)CN(C)C)cc1Nc1nc(Nc2cccc(F)c2C(N)=O)c2cc[nH]c2n1 [GSK2219385]	Percent Control	100
CCS(=O)(=O)c1ccc(OC)c(Nc2ncc(-c3cccc(OC)c3)o2)c1 [GW580509X]	Percent Control	41
C[C@@H](Oc1cc(-n2cnc3ccc(OC4CCN(C)CC4)cc32)sc1C(N)=O)c1ccccc1Cl [GSK579289A]	Percent Control	100
COc1cc(/C=N/Nc2ncnc3[nH]ncc23)ccc1O [GW578748X]	Percent Control	69

Please indicate Percent Control recorded for NS(=O)(=O)c1ccc(N/N=C2\C(=O)Nc3ccc(C(=O)NCCc4c[nH]cn4)cc32)cc1 [GW300660X]
100

----------
# System: GRK1
# EXPERIMENTAL_PARAMETERS: Compound Concentration (nM):1000
MEASURED_ATTRIBUTE: Percent Control (%)
All answers are understood in %, so give the number only.

MOLECULE	TARGET	READOUT_UNIT	Percent Control
Cl.O=S1CCN(Cc2ccc(-c3ccc4ncnc(Nc5ccc(OCc6ccccc6)c(F)c5)c4c3)o2)CC1 [GW576924A]	GRK1	%	98
COC(=O)Nc1nc2ccc(Oc3ccc(NC(=O)Nc4cc(C(F)(F)F)ccc4F)cc3)cc2s1.Cl [GW693917A]	GRK1	%	81
CC1=C(C(=O)Nc2ccc3[nH]ncc3c2)C(c2ccc(Cl)c(Cl)c2)CC(=O)N1 (centres unmarked) [GSK299115A]	GRK1	%	89
COc1ccc2c(-c3ccnc(Nc4cccc(OC(F)(F)F)c4)n3)cnn2n1 [GW810372X]	GRK1	%	97
O=C1Nc2ccc(C(=O)c3ccco3)cc2C1=Cc1cc(Cl)c(O)c(Cl)c1 [GW406108X]	GRK1	%	60

Please indicate Percent Control recorded for CCS(=O)(=O)c1ccc(OC)c(Nc2ncc(-c3cccc(OC)c3)o2)c1 [GW580509X]
100

Please indicate Percent Control recorded for C[C@@H](Oc1cc(-n2cnc3ccc(OC4CCN(C)CC4)cc32)sc1C(N)=O)c1ccccc1Cl [GSK579289A]
75

Please indicate Percent Control recorded for `COc1cc(C)c(N(C)C(=O)CN(C)C)cc1Nc1nc(Nc2cccc(F)c2C(N)=O)c2cc[nH]c2n1`
69
